# tgt: T1, Cyno PD-L1 full-length (cynomolgus, UniProt Q9NZQ7 19-290 (human entry))
# T1 construct: also called PDL01022; CHOK1SV/cynoPDL1
# assay details: MSD cell binding, CHOK1SV/cynomolgus PD-L1 cells; x axis without printed unit
reported endpoint: binding result

### Prompt Given the entry PDL01049 (10B2LH x human IgG1 WT Fc) (Fc fusion, not shown: human IgG1 WT Fc) DIQMTQTTSSLSASLGDRVTISCRASQDIRNYLNWYQQKPDGTVKLLIYYTSRLQSGVPSRFSGSGSGTDYSLTITTLEQEDFATYFCQQGNMFPYTFGGGTKLEIKGGGGSGGGGSGGGGSGGGGSKVQLQQSGAEVVKPGASVKLSCKASGYNLTEYIIHWVKQRSGQGLEWIGWFYPGSGSIKYNEKFKDKATLTADKSSTTVYMDLSRLTSEDSAVYFCARHGLYYGFPYWGQGTSVTVSS , report its measured binding result.
### Response binds

Cited source: patent US20260217833A1
